# testDescription: Cmax in fasted Sprague-Dawley rat at 16.5 mg/kg, po by LC-MS/MS analysis
# Format: ADME, organism-based
# recordedConditions: in vivo
propertyName: Cmax (ng/mL)
One number for each entry, in ng/mL.

# smilesStructure, result
records = [
    ("CC(C)C(=O)OCn1c(=O)ccn([C@@H]2O[C@](F)(COC(=O)C(C)C)[C@@H](O)[C@H]2O)c1=O", 3140),
]

Then there is this compound:
Report measured Cmax; entry is CCOC(=O)OCn1c(=O)ccn([C@@H]2O[C@](F)(COC(=O)C(C)C)[C@@H](O)[C@H]2O)c1=O
2440

Source: ChEMBL document CHEMBL6177980
